target: EPHB4 (human); assay: radiometric filter-binding kinase assay; conditions: compound 10.0 µM
QUANTITY_KIND: residual activity (%)
Use % as the unit, but write only the number.

Solved entries:
COMPOUND: C=CC(=O)N1CCC[C@@H](n2nc(-c3ccc(Oc4ccccc4)cc3)c3c(N)ncnc32)C1
TARGET_UNDER_TEST: EPHB4 (human)
residual activity, %: 39
//
COMPOUND: CNc1nc(-c2ccc3c(N)n[nH]c3c2)cc(N2C[C@@H](C(=O)NC3CCCCC3)CC[C@H]2C)n1
TARGET_UNDER_TEST: EPHB4 (human)
residual activity, %: 117
//
COMPOUND: CC(C)(C#N)c1ccc(N2C(=O)OCc3cnc4ccc(-c5cnc6ccccc6c5)cc4c32)cc1
TARGET_UNDER_TEST: EPHB4 (human)
residual activity, %: 96
//
COMPOUND: CCn1c(-c2nonc2N)nc2cncc(CNC3CCNCC3)c21
TARGET_UNDER_TEST: EPHB4 (human)
residual activity, %: 94
//
COMPOUND: O=C(N[C@@H](COc1ccc2[nH]c(=O)[nH]c2c1)c1ccccc1)c1cccn(Cc2ccc(F)c(F)c2)c1=O
TARGET_UNDER_TEST: EPHB4 (human)
residual activity, %: 87

// query residual activity value for entry O=C(NOCC(O)CO)c1ccc(F)c(F)c1Nc1ccc(I)cc1Cl (stereo not given) 86

Now the same for "Cc1ccc2c(c1)C(=O)[C@@]1(O)CCN(c3ccccc3)C1=N2" 99

Note, next up: Nc1cccc2c1CN(C1CCC(=O)NC1=O)C2=O (stereo not given) 99

---

biological target: MELK (human) (UniProt Q14680); assay: radiometric filter-binding kinase assay; settings: compound 1.0 µM
Sequence (Q14680 whole entry, looked up): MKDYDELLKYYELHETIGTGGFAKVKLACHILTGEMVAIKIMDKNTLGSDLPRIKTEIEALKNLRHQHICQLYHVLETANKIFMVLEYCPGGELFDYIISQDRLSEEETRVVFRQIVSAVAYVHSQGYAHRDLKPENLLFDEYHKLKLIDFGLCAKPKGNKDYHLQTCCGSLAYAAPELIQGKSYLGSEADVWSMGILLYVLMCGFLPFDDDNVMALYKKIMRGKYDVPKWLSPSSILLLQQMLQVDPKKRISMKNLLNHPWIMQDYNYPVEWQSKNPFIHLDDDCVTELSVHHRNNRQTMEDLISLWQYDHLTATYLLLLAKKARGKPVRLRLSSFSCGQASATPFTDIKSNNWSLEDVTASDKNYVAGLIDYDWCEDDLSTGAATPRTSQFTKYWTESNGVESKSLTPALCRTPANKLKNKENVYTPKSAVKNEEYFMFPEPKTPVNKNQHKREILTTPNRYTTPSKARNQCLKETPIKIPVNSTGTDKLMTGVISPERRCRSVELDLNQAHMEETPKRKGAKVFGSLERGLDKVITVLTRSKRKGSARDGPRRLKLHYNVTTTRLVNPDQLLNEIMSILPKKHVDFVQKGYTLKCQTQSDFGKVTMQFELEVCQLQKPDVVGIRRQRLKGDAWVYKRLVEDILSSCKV
Note to self: residual activity under 90% means Satisfied, ties and anything higher get Not satisfied.

COMPOUND: CC(C)(C#N)c1ccc(N2C(=O)OCc3cnc4ccc(-c5cnc6ccccc6c5)cc4c32)cc1
GROUP_LABEL: Satisfied
--
COMPOUND: CCn1c(-c2nonc2N)nc2cncc(CNC3CCNCC3)c21
GROUP_LABEL: Satisfied
--
COMPOUND: C=C1C(=O)OC2C1CC/C(C)=C/CCC1(C)OC21 (stereo not given)
GROUP_LABEL: Not satisfied
--
COMPOUND: Nc1cccc2c1CN(C1CCC(=O)NC1=O)C2=O (stereo not given)
GROUP_LABEL: Not satisfied
--
COMPOUND: O=C(N[C@@H](COc1ccc2[nH]c(=O)[nH]c2c1)c1ccccc1)c1cccn(Cc2ccc(F)c(F)c2)c1=O
GROUP_LABEL: Not satisfied

For "COc1cc2ncn(-c3cc(OCc4ccccc4S(C)(=O)=O)c(C#N)s3)c2cc1OC" , is the recorded residual activity below the cut-off of 90%? Satisfied

Query "Cc1cccc(-c2nn(C(=S)Nc3ccccc3)cc2-c2ccnc3ccccc23)n1" next Not satisfied

Request: "CN(C)C/C=C/C(=O)Nc1cccc(C(=O)Nc2ccc(Nc3nccc(-c4cccnc4)n3)cc2)c1" Satisfied

---

biological target: UniProt:P49841; experiment: radiometric filter-binding kinase assay; settings: compound 1.0 µM
Sequence (P49841 whole entry, looked up): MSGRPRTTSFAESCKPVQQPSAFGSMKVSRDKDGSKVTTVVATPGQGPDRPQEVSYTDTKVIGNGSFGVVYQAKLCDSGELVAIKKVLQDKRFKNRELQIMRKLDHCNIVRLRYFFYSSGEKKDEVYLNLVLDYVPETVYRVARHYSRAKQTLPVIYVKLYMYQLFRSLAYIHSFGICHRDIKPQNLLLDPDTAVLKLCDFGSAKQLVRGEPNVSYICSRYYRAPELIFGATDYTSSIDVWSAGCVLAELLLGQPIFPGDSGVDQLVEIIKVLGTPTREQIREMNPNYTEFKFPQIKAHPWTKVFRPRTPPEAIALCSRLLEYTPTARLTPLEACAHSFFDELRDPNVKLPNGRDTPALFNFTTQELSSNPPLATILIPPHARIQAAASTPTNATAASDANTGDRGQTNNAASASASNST
Flag rule - residual activity less than 80% flags Y; the remaining entries get N.

MOLECULE: CC1=C(CO)C(=O)O[C@@H]([C@@H](C)[C@H]2CC[C@H]3[C@@H]4C[C@H]5O[C@]56[C@@H](O)C=CC(=O)[C@]6(C)C4CC[C@]23C)C1 (stereo not given in full)
GROUP_LABEL: N
--
MOLECULE: Cc1cc(SCc2sc(-c3ccc(C(F)(F)F)cc3)nc2C)ccc1OCC(=O)O
GROUP_LABEL: N
--
MOLECULE: Oc1ccc2ccccc2c1SSc1c(O)ccc2ccccc12
GROUP_LABEL: Y

Check if residual activity falls below 80% for "FC(F)(F)c1ccc(-c2ccc(Oc3cncc4sc(-c5nn[nH]n5)cc34)cc2)cc1" . Y

Input "Cc1ccc(-c2ccc3c(ccc4sc5c(c43)NC[C@@H](C)NC5=O)n2)cn1" N

Proceed to C=C1C(=O)OC2C1CC/C(C)=C/CCC1(C)OC21 (stereo not given) N

"Cc1cccc(Nc2nn(C)c3ncnc(N)c23)c1" , same question. N

Similarly, "NC(=O)Nc1ccc2c(c1)/C(=C/c1cc(-c3cccnc3)c[nH]1)C(=O)N2" ? Y

Next molecule: "NC1(c2ccc(-c3nc4ccn5c(=O)[nH]nc5c4cc3-c3ccccc3)cc2)CCC1" N

Same lookup for "O=C(NCCCNc1nc(Nc2cccc(CN3CCOCC3)c2)ncc1C1CC1)C1CCC1" , please. N

Try "Cc1ccc(=O)n(-c2ccccc2)c1" next. N

What do you get for "NS(=O)(=O)OC[C@@H]1C[C@@H](n2ccc3c(N[C@H]4CCc5ccccc54)ncnc32)C[C@@H]1O" ? N
